Data credit: patent US9850283B2

This section presents compounds with their documented IC50 values.
molecular target: Human PD-L1/PD-1 (Homo sapiens); construct: made in house; host or cells: HEK293T; assay: HTRF PD-1-Ig/PD-L1-His binding assay (human PD-L1); settings: cluster symbol; read-out: HTRF IC50 cluster
Sequence (Q9NZQ7 with tags, fused parts or gaps): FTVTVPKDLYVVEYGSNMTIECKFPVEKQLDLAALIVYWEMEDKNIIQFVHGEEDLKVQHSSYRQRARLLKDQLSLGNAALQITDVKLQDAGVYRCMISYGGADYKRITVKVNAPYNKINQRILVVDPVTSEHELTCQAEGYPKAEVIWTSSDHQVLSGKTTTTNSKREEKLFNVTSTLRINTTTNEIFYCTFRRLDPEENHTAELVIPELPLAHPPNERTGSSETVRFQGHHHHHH
Positions of bridges follow the written chain, without caps; N, C: chain ends. Non-standard residues stand in square brackets, D forms with d. Residues, ends and D or L forms follow the SMILES beside them. *: point of attachment. Phe(4-Cl) = N[C@@H](Cc1ccc(Cl)cc1)C(=O)O; 1Nal = N[C@@H](Cc1cccc2ccccc12)C(=O)O; Hyp = O=C(O)[C@@H]1C[C@@H](O)CN1; NMeF = CN[C@@H](Cc1ccccc1)C(=O)O; NMeNle = CCCC[C@H](NC)C(=O)O; NMeS = CN[C@@H](CO)C(=O)O; NMeA = CN[C@@H](C)C(=O)O; Dab = NCC[C@H](N)C(=O)O; Dap = NC[C@H](N)C(=O)O; Bn = c1ccc(C*)cc1; Sar = CNCC(=O)O

Recorded IC50, per entry:
CCCC[C@H]1C(=O)N(C)[C@@H](CCCC)C(=O)N[C@@H](CCN)C(=O)N[C@H](C(=O)NCC(N)=O)CSCC(=O)N[C@@H](Cc2ccc(O)cc2)C(=O)N(C)[C@@H](C)C(=O)N[C@@H](CCN)C(=O)N2CCC[C@H]2C(=O)N[C@@H](CN)C(=O)N[C@@H](CC(C)C)C(=O)N2C[C@H](O)C[C@H]2C(=O)N[C@@H](Cc2c[nH]c3ccccc23)C(=O)N[C@@H](CCN)C(=O)N[C@@H](Cc2c[nH]c3ccccc23)C(=O)N1C [Example 5140] ({CH2CO}-Y[NMeA][Dab]P[Dap]L[Hyp]W[Dab]W[NMeNle][NMeNle][Dab]CG-NH2; thioether N-14) :: 6.76 to 30.3 nM
CCCC[C@H]1C(=O)N[C@@H](CCCNC(=N)N)C(=O)N[C@H](C(=O)NCC(N)=O)CSCC(=O)N[C@@H](Cc2ccccc2)C(=O)N(C)[C@@H](C)C(=O)N[C@@H](CC(N)=O)C(=O)N2CCC[C@H]2C(=O)N[C@@H](Cc2cnc[nH]2)C(=O)N[C@@H](CC(C)C)C(=O)N(C)CC(=O)N[C@@H](Cc2c[nH]c3ccccc23)C(=O)N[C@@H](CO)C(=O)N[C@@H](Cc2c[nH]c3ccccc23)C(=O)N(C)[C@@H](COCc2ccccc2)C(=O)N1C [Example 6013] ({CH2CO}-F[NMeA]NPHL[Sar]WSW[NMeS](Bn)[NMeNle]RCG-NH2; thioether N-14) :: 6.76 to 30.3 nM
CCCC[C@H]1C(=O)N(C)CC(=O)N[C@@H](CC(=O)O)C(=O)N[C@@H](C(C)C)C(=O)N(C)[C@@H](Cc2ccccc2)C(=O)N[C@@H](Cc2ccc(O)cc2)C(=O)N(C)CC(=O)N[C@@H](Cc2cccc3ccccc23)C(=O)N[C@@H](Cc2ccc(O)cc2)C(=O)N[C@@H](CC(C)C)C(=O)N[C@H](C(=O)NCC(N)=O)CSCC(=O)N[C@@H](Cc2ccccc2)C(=O)N(C)[C@@H](Cc2ccccc2)C(=O)N1C [Example 3515] ({CH2CO}-F[NMeF][NMeNle][Sar]DV[NMeF]Y[Sar][1Nal]YLCG-NH2; thioether N-13) :: 6.76 to 30.3 nM
CCCC[C@H]1C(=O)N(C)CC(=O)N[C@@H](CC(=O)O)C(=O)N[C@@H](C(C)C)C(=O)N[C@@H](Cc2ccc(Cl)cc2)C(=O)N[C@@H](Cc2ccc(O)cc2)C(=O)N(C)CC(=O)N[C@@H](Cc2c[nH]c3ccccc23)C(=O)N[C@@H](Cc2ccc(O)cc2)C(=O)N[C@@H](CC(C)C)C(=O)N[C@H](C(=O)NCC(N)=O)CSCC(=O)N[C@@H](Cc2ccccc2)C(=O)N(C)[C@@H](Cc2ccccc2)C(=O)N1C [Example 3145] ({CH2CO}-F[NMeF][NMeNle][Sar]DV[Phe(4-Cl)]Y[Sar]WYLCG-NH2; thioether N-13) :: > 30.5 nM

Problem: Which value of IC50 has been reported for CCCC[C@H]1C(=O)N(C)[C@@H](CCCC)C(=O)N[C@@H](CCCNC(=N)N)C(=O)N[C@H](C(=O)NCC(N)=O)CSCC(=O)N[C@@H](Cc2ccc(O)cc2)C(=O)N(C)[C@@H](C)C(=O)N[C@@H](CC(N)=O)C(=O)N2CCC[C@H]2C(=O)N[C@@H](Cc2cnc[nH]2)C(=O)N[C@@H](CCC(=O)O)C(=O)N2CCC[C@H]2C(=O)N[C@@H](Cc2c[nH]c3ccccc23)C(=O)N[C@@H](CO)C(=O)N[C@@H](Cc2c[nH]c3ccccc23)C(=O)N1C [Example 1090] ({CH2CO}-Y[NMeA]NPHEPWSW[NMeNle][NMeNle]RCG-NH2; thioether N-14) in the records?
Solution: 0.385 to 6.74 nM

Problem: Which value of IC50 has been reported for CCCC[C@H]1C(=O)N(C)[C@@H](CCOC)C(=O)N[C@@H](CCCNC(=N)N)C(=O)NC(C(=O)NCC(N)=O)CSCC(=O)N[C@@H](Cc2ccc(O)cc2)C(=O)N(C)[C@@H](C)C(=O)N[C@@H](CC(N)=O)C(=O)N2CCC[C@H]2C(=O)N[C@@H](Cc2cnc[nH]2)C(=O)N[C@@H](CC(C)C)C(=O)N2C[C@H](O)C[C@@H]2C(=O)N[C@@H](Cc2c[nH]c3ccccc23)C(=O)N[C@@H](CO)C(=O)N[C@@H](Cc2c[nH]c3ccccc23)C(=O)N1C (some centres unmarked) in the records?
Solution: 0.385 to 6.74 nM

Problem: Which value of IC50 has been reported for CCCC[C@H]1C(=O)N(C)[C@@H](CCCC)C(=O)N[C@@H](CCCNC(=N)N)C(=O)N[C@H](C(=O)NCC(N)=O)C/C=C/C(=O)N[C@@H](Cc2ccc(O)cc2)C(=O)N(C)[C@@H](C)C(=O)N[C@@H](CC(N)=O)C(=O)N2CCCC2C(=O)N[C@@H](Cc2cnc[nH]2)C(=O)N[C@@H](CC(C)C)C(=O)N2CCC[C@H]2C(=O)N[C@@H](Cc2c[nH]c3ccccc23)C(=O)N[C@@H](CO)C(=O)N[C@@H](Cc2c[nH]c3ccccc23)C(=O)N1C (some centres unmarked) in the records?
Solution: > 30.5 nM

Problem: Which value of IC50 has been reported for CCCC[C@H]1C(=O)N(C)[C@@H](CCCC)C(=O)N[C@@H](CCCNC(=N)N)C(=O)N[C@H](C(=O)NCC(N)=O)CSCC(=O)N[C@@H](Cc2ccccc2)C(=O)N(C)[C@@H](C)C(=O)N[C@@H](CC(N)=O)C(=O)N2CCC[C@H]2C(=O)N[C@@H](Cc2cnc[nH]2)C(=O)N[C@@H](CO)C(=O)N(C)CC(=O)N[C@@H](Cc2c[nH]c3ccccc23)C(=O)N[C@@H](CO)C(=O)N[C@@H](Cc2c[nH]c3ccccc23)C(=O)N1C [Example 6010] ({CH2CO}-F[NMeA]NPHS[Sar]WSW[NMeNle][NMeNle]RCG-NH2; thioether N-14) in the records?
Solution: > 30.5 nM

====

This section presents compounds with their documented pIC50 values.
biological target: Human PD-L1/PD-1 (Homo sapiens); construct: made in house; host or cells: HEK293T; test: HTRF PD-1-Ig/PD-L1-His binding assay (human PD-L1); conditions: cluster symbol; read-out: HTRF IC50 cluster
pIC50: −log10 of the molar value. Positions of bridges follow the written chain, without caps; N, C: chain ends. Non-standard residues stand in square brackets, D forms with d. Residues, ends and D or L forms follow the SMILES beside them. ξ: configuration not given here. Trp(5-OH) = N[C@@H](Cc1c[nH]c2ccc(O)cc12)C(=O)O; Bta = N[C@@H](Cc1csc2ccccc12)C(=O)O; NMeF = CN[C@@H](Cc1ccccc1)C(=O)O; NMeNle = CCCC[C@H](NC)C(=O)O; NMeM = CN[C@@H](CCSC)C(=O)O; NMeA = CN[C@@H](C)C(=O)O; Dap = NC[C@H](N)C(=O)O; ξC = NC(CS)C(=O)O; Sar = CNCC(=O)O

CCCC[C@H]1C(=O)N(C)[C@@H](CCSC)C(=O)N[C@@H](CCCNC(=N)N)C(=O)NC(C(=O)NCC(N)=O)CSCC(=O)N[C@@H](Cc2ccc(O)cc2)C(=O)N(C)[C@@H](C)C(=O)N[C@@H](CC(N)=O)C(=O)N2CCC[C@H]2C(=O)N[C@@H](CN)C(=O)N[C@@H](CC(C)C)C(=O)N2CCC[C@H]2C(=O)N[C@@H](Cc2c[nH]c3ccccc23)C(=O)N[C@@H](CO)C(=O)N[C@@H](Cc2csc3ccccc23)C(=O)N1C (some centres unmarked) [Example 9082] ({CH2CO}-Y[NMeA]NP[Dap]LPWS[Bta][NMeNle][NMeM]R[ξC]G-NH2; thioether N-14) :: 8.17 to 9.41

--- query ---
Problem: Which value of pIC50 has been reported for CCCC[C@H]1C(=O)N(C)CC(=O)N[C@@H](CC(=O)O)C(=O)N[C@@H](C(C)C)C(=O)N(C)[C@@H](Cc2ccccc2)C(=O)N[C@@H](Cc2c[nH]c3ccc(O)cc23)C(=O)N(C)CC(=O)N[C@@H](Cc2c[nH]c3ccccc23)C(=O)N[C@@H](Cc2ccc(O)cc2)C(=O)N[C@@H](CC(C)C)C(=O)N[C@H](C(=O)NCC(N)=O)CSCC(=O)N[C@@H](Cc2ccccc2)C(=O)N(C)[C@@H](Cc2ccccc2)C(=O)N1C [Example 3148] ({CH2CO}-F[NMeF][NMeNle][Sar]DV[NMeF][Trp(5-OH)][Sar]WYLCG-NH2; thioether N-13) in the records?
Solution: 7.52 to 8.17
